- TEST DESCRIPTION: Solubility of insoluble drugs in 16% SBECD aqueous solution (Example 27)
- CONDITION SUMMARY: 16% SBECD aqueous solution, aqueous with cosolvent or surfactant or cyclodextrin, thermodynamic from solid
PARAMETER: solubility (µg/mL)
Report the value in µg/mL with no unit label.

Input: Need solubility, item N[C@@H](Cc1ccc(O)c(O)c1)C(=O)O
Output: 2130

Input: Ok, now C[C@@H]1[C@H](O)[C@@H](C)/C=C/C=C/C=C/C=C/C=C/C=C/C=C/[C@H](O[C@@H]2O[C@H](C)[C@@H](O)[C@H](N)[C@@H]2O)C[C@@H]2O[C@](O)(C[C@@H](O)C[C@@H](O)[C@H](O)CC[C@@H](O)C[C@@H](O)CC(=O)O[C@H]1C)C[C@H](O)[C@H]2C(=O)O
Output: 70

Input: Ok, now CC1=C(C/C=C(\C)CCC[C@H](C)CCC[C@H](C)CCCC(C)C)C(=O)c2ccccc2C1=O
Output: 150

###

- TEST DESCRIPTION: Voriconazole solubility in LMBW versus binary/ternary mixtures of L, M, B and alcohol (Example 2)
- Type: physicochemical
- CONDITION SUMMARY: micelle solution (glycocholic acid and alcohols in water), aqueous with cosolvent or surfactant or cyclodextrin, thermodynamic from solid; vehicle % wt in water: glycocholic acid 10.6, benzyl alcohol 4.5, ethanol 6.5; micelle solution, hazy; pH 4.5-5, RT
PARAMETER: solubility (µg/mL)
Report the value in µg/mL with no unit label.

Input: Need solubility, item C[C@@H](c1ncncc1F)[C@](O)(Cn1cncn1)c1ccc(F)cc1F
Output: 7600

###

- TEST DESCRIPTION: Voriconazole solubility in LMBW versus binary/ternary mixtures of L, M, B and alcohol (Example 2)
- Assay type: physicochemical
- CONDITION SUMMARY: MCT and alcohols in water), aqueous with cosolvent or surfactant or cyclodextrin, thermodynamic from solid; vehicle % wt in water: lecithin 25, MCT 15, benzyl alcohol 4.5, ethanol 6.5; emulsion, opaque; pH 4.5-5, RT
PARAMETER: solubility

Input: Need solubility, item C[C@@H](c1ncncc1F)[C@](O)(Cn1cncn1)c1ccc(F)cc1F [Voriconazole]
Output: 19.8 mg/mL

###

- TEST DESCRIPTION: Voriconazole solubility in LMBW versus binary/ternary mixtures of L, M, B and alcohol (Example 2)
- Format: physicochemical
- CONDITION SUMMARY: aqueous with cosolvent or surfactant or cyclodextrin, thermodynamic from solid; vehicle % wt in water: glycocholic acid 10.6; micelle solution, hazy; pH 4.5-5, RT
PARAMETER: solubility (µg/mL)
Report the value in µg/mL with no unit label.

Input: Need solubility, item C[C@@H](c1ncncc1F)[C@](O)(Cn1cncn1)c1ccc(F)cc1F [Voriconazole]
Output: 2100

###

- TEST DESCRIPTION: Voriconazole solubility in LMBW versus binary/ternary mixtures of L, M, B and alcohol (Example 2)
- Format: physicochemical
- CONDITION SUMMARY: liposome (lecithin and alcohols in water), aqueous with cosolvent or surfactant or cyclodextrin, thermodynamic from solid; vehicle % wt in water: lecithin 25, benzyl alcohol 4.5, ethanol 6.5; liposome, hazy; pH 4.5-5, RT
- Experimental: For this study, voriconazole was used as the insoluble drug. To determine solubility in each combination, voriconazole was added to each combination and mixed until it no longer would dissolve. For each mixture, the pH was adjusted to pH 4.5-5, equilibrated at room temperature, and then passed through a 0.2-micron filter. The filtrate was analyzed by HPLC for voriconazole concentration. Each HPLC-determined voriconazole concentration is noted as a “Voriconazole solubility” in the tables below.
PARAMETER: solubility (mg/mL)
Report the value in mg/mL with no unit label.

Input: Need solubility, item C[C@@H](c1ncncc1F)[C@](O)(Cn1cncn1)c1ccc(F)cc1F
Output: 13.7
